# methodSummary: protease stability score; higher = more stable; yeast display proteolysis, trypsin and chymotrypsin;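 further: relative to predicted unfolded state with 0 unfolded-like and 1 meaning tenfold more protease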
Assign protease stability score to each entry below.
// keep it numeric: no unit symbol after the value

In plain terms, SEEEELRHELAHRWLRAFETGNFHMLLELFDPNTYFEVGDKKFHGREEVSKLLEEIWEHIRFEHVKVREVRLQGDKLHIDGETDGRVNGRDEKRKVEFEVTVINGVIHSVIIRIK has a documented protease stability score of 2.46

In plain terms, SEEEEEWHRLIEHWMRKWLTGDEERLARLADPNVRLEDENHQSHGREEMARFLHEKILKLGVDHTRIRHYRDQGEYLHLDFEVEINGRRVRVKVHVVIIDGVVKELKFHVE has a documented protease stability score of 1.19

In plain terms, SEEEEETEEVADLHLETLKTGNEDLLEDLLDPNVRVIVNGKHHIGRHFLLKWVTEFGIKHFELKRREIDIQGEKADIHIQGNMYFNGRTVRAHIHQEVTKFDGRWFNHRVEIEFK has a documented protease stability score of 1.84

In plain terms, SEDEFDARLVYKLVLDLLLTGDPDTWRKLFDPNVKINIDGVDYHGMKEFERIVKEIRVIIHDSELHDVETQGDKIIYHGIIDGTYHVNGRTIRERRTFTIIAHKVDGRWILHSISYE has a documented protease stability score of 1.22

In plain terms, SEDEKSIKVAIELIINSVRTGDERFIKELADPHVRLEIGNKRVHGREEFAKLLSEENRQMRIHIIIDDVKSVGDFVFIRGTIEIHIDGVEERREFEIFVWKFNGRWVIKEERIH has a documented protease stability score of 1.43

In plain terms, SEEEEEMEKVAKRWFWAVLTGNEDELHELLDPEAKSDVNGRDTHGREEVVRLMTEHVEKLGVDHVKVHDVKIQGNKFHFDGILIFNGVTVHSRVELDLINGKVHYMSIKLQ has a documented protease stability score of 1.1

In plain terms, SEVEEWLRTLIHLIILAFRTGDEDQMRRNFDPNARVHVGDKDYHGRELFEEMMHHWRLHHIHIHDVRVQGDYVEADIKLDGEVNGKRFTTRVIIVFLKIDGKWQEKESEFV has a documented protease stability score of 0.395

In plain terms, SEDERQSEHMNRLIFESLETGDFHKLMRLMDPHARAVVDGREVHGMELLEEILKRIKDELGVTRIRTRIRTERTQGNKADNITEYEIGDKSFTVIIHNQKIDGRWVIHEVRFE has a documented protease stability score of 1.24

In plain terms, DEATKSAEIAVRLLKKTQDTGNEELERKLVDPHVRVDVNGRESHGWEHLVEIIREMRVHSLTVTRSEVQGNKVFNDGILDGEINGVRVHIYIHIIIEKINGQWVIRELRFH has a documented protease stability score of 0.803

In plain terms, SEEHEEERHHVEDLLRALWTGNEEHLKKLADPHMRTILIVNGKQLDLHGWRDMWRALREIRERLGIDHEHIHRSRIYNGRLEIDSRVEVDGVHHIVKIRVDVIDGKNHEFKIEFR has a documented protease stability score of 1.63

# credit: the NTF2 design screens of Basanta et al. (2020)
